System: K562
Assay: NCI tumour cell line growth inhibition, 48 h
Active and inactive are the calls of the source. No stated cut-off is given here; in the data, active = GI50 up to about 1.1 µM and inactive = higher. Residues, ends and D or L forms follow the SMILES beside them. *: point of attachment. Boc = CC(C)(C)OC(=O)*; Bz = O=C(c1ccccc1)*
Labels: 1 (yes) (active), 0 (no) (inactive)

>  <COMPOUND>
CCCCCCCCCCCOC(=S)NC(C)C

>  <TARGET_UNDER_TEST>
K562

>  <LABEL_VALUE>
0 (no)

$$$$
>  <COMPOUND>
c1ccc2c3c([nH]c2c1)C1c2[nH]c4ccccc4c2CCN1CC3

>  <TARGET_UNDER_TEST>
K562

>  <LABEL_VALUE>
0 (no)

$$$$
>  <COMPOUND>
CN(C)CCNc1ccc2c(=O)n(CCN(C)C)c(=O)n3c4ccccc4c(=O)c1c23

>  <TARGET_UNDER_TEST>
K562

>  <LABEL_VALUE>
1 (yes)

$$$$
>  <COMPOUND>
C[C@@H](Br)[C@@H]1CC[C@H]2c3[nH]c4ccccc4c3CCN2C1

>  <TARGET_UNDER_TEST>
K562

>  <LABEL_VALUE>
0 (no)

$$$$
>  <COMPOUND>
CC(NC(=O)C(Cc1ccc(OC(=O)c2ccccc2)cc1)NC(=O)OC(C)(C)C)C(=O)NC(Cc1ccccc1)C(=O)NCC(N)=O (centres undefined) (Boc-Y(Bz)AFG-NH2; configuration not given here)

>  <TARGET_UNDER_TEST>
K562

>  <LABEL_VALUE>
0 (no)

$$$$
>  <COMPOUND>
CC(C)[Si]1(C(C)C)OCC2OC(N3C(=O)NC(=O)C[C@@H]3C(O)c3ccccc3)CC2O[Si](C(C)C)(C(C)C)O1 (some centres undefined)

>  <TARGET_UNDER_TEST>
K562

>  <LABEL_VALUE>
0 (no)

$$$$
>  <COMPOUND>
COC(=O)c1ccccc1CC1Cc2ccc3c(c2C1=O)CCC3 (centres undefined)

>  <TARGET_UNDER_TEST>
K562

>  <LABEL_VALUE>
0 (no)

$$$$
>  <COMPOUND>
CC(C)(C)c1ccc2c(c1)OCc1n[nH]c(n1)COc1cc(C(C)(C)C)ccc1OCCOCCO2

>  <TARGET_UNDER_TEST>
K562

>  <LABEL_VALUE>
0 (no)

$$$$
>  <COMPOUND>
CC(NNC(=O)c1cc[n+]([BH2-]C#N)cc1)c1cccc(F)c1 (centres undefined)

>  <TARGET_UNDER_TEST>
K562

>  <LABEL_VALUE>
0 (no)

$$$$

###

Reported GI50 is given for each of the following molecules.
System: UACC-257
Experiment: NCI tumour cell line growth inhibition, 48 h
The source made the active and inactive calls. No stated cut-off is given here; in the data, active = GI50 up to about 1.1 µM and inactive = higher.

>  <MOLECULE>
CCCC1CCC(=C2C(=O)CCC2=O)O1 (stereo not given)

>  <GI50>
> 100 µM (inactive)

$$$$
>  <MOLECULE>
COc1ccccc1NS(=O)(=O)c1cc(C(C)(C)C)ccc1OCCOc1ccc(C(C)(C)C)cc1S(=O)(=O)Nc1ccccc1OC

>  <GI50>
> 100 µM (inactive)

$$$$
>  <MOLECULE>
CCCCNC(=NC#N)NCCCC

>  <GI50>
> 100 µM (inactive)

$$$$
>  <MOLECULE>
CCN(CC)c1ccc(/C=C/c2ccnc3ccccc23)cc1

>  <GI50>
> 100 µM (inactive)

$$$$
>  <MOLECULE>
COc1ccc(C2COc3c(ccc(OC)c3OC)C2=O)cc1OC (stereo not given)

>  <GI50>
> 100 µM (inactive)

$$$$
>  <MOLECULE>
CCOC(=O)C1(C/C=C\CBr)CCCCCCCCCCC1=O (stereo not given)

>  <GI50>
15.2 µM (inactive)

$$$$
>  <MOLECULE>
CC(=O)NNc1nc(C)c(C(=O)/C=C/c2cccc([N+](=O)[O-])c2)s1

>  <GI50>
> 100 µM (inactive)

$$$$
>  <MOLECULE>
COc1ccc(C2CC(C)=Nc3c(O)nc(S)nc3N2)cc1 (stereo not given)

>  <GI50>
16.8 µM (inactive)

$$$$
>  <MOLECULE>
COC(=O)C1=C(O)C(C(=O)OC)[C@@]2(O)[C@@H](C(=O)OC)C(c3ccc(OC(=O)/C(=C/c4ccccc4)c4ccccc4)cc3)C[C@@H]1[C@@H]2C(=O)OC (stereo not given in full)

>  <GI50>
18.9 µM (inactive)

$$$$
>  <MOLECULE>
S=C(N1CCN(c2ccccc2)CC1)N1CCN(c2ccccc2)CC1

>  <GI50>
> 100 µM (inactive)

$$$$

Source of measurements: ChEMBL document CHEMBL1201862
